Each recorded value in this set is attributed to paper PMC12154458.

# experimental system: recombinant human acetylcholinesterase, rHsAChE (Homo sapiens, UniProt P22303)
# Sequence (P22303 32-614): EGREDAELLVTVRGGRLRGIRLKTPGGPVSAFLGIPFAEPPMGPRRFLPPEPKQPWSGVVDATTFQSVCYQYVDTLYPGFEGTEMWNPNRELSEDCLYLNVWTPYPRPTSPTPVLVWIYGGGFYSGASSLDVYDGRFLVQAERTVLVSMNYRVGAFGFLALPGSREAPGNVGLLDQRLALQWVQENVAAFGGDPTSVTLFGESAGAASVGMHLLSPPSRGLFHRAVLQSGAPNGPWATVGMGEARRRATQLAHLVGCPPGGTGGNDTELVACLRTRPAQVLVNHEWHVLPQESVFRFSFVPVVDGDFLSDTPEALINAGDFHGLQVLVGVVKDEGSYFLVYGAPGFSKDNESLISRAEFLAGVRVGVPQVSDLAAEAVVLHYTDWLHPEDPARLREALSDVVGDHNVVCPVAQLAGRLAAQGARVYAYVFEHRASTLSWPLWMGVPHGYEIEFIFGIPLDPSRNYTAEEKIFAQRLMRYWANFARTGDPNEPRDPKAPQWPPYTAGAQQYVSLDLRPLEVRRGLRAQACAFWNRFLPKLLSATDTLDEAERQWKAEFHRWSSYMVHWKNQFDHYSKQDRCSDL
# measurement description: biochemical
# recorded conditions: IC50 (µM) rHsAChE
observable: log10 IC50 (log10 of the value in µM)
Please be aware that the numbers have been log10-transformed from IC50 in µM.

INPUT: I have this compound here, CCCCCCCCCCCC1=C(O)C(=O)C=C(O)C1=O [Embelin, reference compound] , and I need its recorded log10 IC50.
OUTPUT: 0.26

INPUT: I have this compound here, O=C(O)c1ccc(-c2c[nH]c3ncc(-c4ccccc4)cc23)cc1C1CCCC1 [GSK-650394, reference compound] , and I need its recorded log10 IC50.
OUTPUT: 0.91

INPUT: I have this compound here, CC(C)(Sc1cc(C(C)(C)C)c(O)c(C(C)(C)C)c1)Sc1cc(C(C)(C)C)c(O)c(C(C)(C)C)c1 [Probucol, reference compound] , and I need its recorded log10 IC50.
OUTPUT: 0.85

INPUT: I have this compound here, O=C(Nc1cccc2c(=O)cc(-c3nnn[nH]3)oc12)c1ccc(OCCCCc2ccccc2)cc1 [Pranlukast, reference compound] , and I need its recorded log10 IC50.
OUTPUT: 1.10

INPUT: I have this compound here, CCCCCCCCCCCCCCCC[N+](C)(C)CCN(Cc1ccc(OC)cc1)c1ncccn1 [Thonzonium bromide, reference compound] , and I need its recorded log10 IC50.
OUTPUT: -0.42

INPUT: I have this compound here, CN(CCCCCCCCCCN(C)C(=O)Oc1cccc([N+](C)(C)C)c1)C(=O)Oc1cccc([N+](C)(C)C)c1 [Demecarium bromide, reference compound] , and I need its recorded log10 IC50.
OUTPUT: -1.70

INPUT: I have this compound here, O=C(NC(=O)c1c(F)cccc1F)Nc1cc(Cl)c(OC(F)(F)C(F)C(F)(F)F)cc1Cl (stereo not shown) [Lufenuron, reference compound] , and I need its recorded log10 IC50.
OUTPUT: 1.08
